Target: IKZF2 (Homo sapiens (Human), UniProt Q96SW2+Q9UKS7)
Sequence (Q9UKS7 whole entry): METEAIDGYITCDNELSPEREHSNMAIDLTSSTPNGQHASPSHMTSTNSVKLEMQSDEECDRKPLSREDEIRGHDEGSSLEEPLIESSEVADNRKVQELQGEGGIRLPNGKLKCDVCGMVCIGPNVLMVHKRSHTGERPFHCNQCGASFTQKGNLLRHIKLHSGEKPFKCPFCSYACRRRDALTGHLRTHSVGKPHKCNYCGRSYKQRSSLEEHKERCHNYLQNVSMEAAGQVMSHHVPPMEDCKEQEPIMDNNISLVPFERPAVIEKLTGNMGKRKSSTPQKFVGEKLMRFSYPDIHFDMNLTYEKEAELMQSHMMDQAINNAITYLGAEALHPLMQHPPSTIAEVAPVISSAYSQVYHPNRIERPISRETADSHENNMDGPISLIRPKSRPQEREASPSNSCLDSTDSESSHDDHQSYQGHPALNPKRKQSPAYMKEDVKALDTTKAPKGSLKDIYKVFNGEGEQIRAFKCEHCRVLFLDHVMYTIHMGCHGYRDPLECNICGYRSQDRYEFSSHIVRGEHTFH
Sequence (Q96SW2 whole entry): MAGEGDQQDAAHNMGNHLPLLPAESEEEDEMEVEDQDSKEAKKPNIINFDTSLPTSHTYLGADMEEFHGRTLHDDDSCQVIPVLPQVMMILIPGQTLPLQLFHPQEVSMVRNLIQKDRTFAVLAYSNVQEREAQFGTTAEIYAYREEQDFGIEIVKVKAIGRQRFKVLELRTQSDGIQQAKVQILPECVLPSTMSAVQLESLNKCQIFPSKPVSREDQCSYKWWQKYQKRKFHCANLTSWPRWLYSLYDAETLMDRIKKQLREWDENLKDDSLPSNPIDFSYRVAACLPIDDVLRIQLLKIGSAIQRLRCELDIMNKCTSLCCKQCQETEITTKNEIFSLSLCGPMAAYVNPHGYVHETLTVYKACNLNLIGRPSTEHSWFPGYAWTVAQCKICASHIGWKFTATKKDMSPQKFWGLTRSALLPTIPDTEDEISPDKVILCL
Sequence (Q16531 whole entry partner): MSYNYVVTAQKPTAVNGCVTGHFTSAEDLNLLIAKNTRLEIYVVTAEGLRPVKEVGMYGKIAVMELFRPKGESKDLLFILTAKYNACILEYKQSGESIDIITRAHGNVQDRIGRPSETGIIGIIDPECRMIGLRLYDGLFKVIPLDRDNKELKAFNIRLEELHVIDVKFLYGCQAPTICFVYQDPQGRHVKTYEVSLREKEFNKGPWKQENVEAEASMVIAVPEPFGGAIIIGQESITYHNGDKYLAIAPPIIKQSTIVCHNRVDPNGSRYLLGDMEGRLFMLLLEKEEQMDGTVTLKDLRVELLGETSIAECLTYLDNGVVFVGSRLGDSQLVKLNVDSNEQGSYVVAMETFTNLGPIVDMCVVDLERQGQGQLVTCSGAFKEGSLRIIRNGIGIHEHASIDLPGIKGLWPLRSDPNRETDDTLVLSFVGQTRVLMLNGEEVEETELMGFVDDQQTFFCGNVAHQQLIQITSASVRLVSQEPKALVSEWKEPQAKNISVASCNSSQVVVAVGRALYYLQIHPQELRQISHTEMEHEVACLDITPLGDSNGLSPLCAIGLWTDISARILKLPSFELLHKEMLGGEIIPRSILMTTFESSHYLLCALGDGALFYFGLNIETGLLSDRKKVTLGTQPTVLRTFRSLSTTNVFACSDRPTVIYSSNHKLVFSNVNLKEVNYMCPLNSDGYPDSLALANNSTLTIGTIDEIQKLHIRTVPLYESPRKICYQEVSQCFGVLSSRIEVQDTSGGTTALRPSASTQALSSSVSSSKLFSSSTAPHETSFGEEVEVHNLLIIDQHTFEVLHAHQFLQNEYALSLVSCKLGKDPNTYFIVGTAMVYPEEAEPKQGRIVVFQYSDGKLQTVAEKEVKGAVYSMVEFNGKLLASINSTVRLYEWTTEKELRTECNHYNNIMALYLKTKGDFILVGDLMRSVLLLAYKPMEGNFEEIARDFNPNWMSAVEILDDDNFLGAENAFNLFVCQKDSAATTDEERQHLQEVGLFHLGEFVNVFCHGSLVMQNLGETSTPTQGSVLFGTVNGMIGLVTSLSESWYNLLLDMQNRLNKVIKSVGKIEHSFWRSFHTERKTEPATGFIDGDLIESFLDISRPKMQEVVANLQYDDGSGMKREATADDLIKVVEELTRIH
Test: IKZF2 HiBiT Assay (Jurkat-IKZF2-HiBiT cell line)
Format: cell-based
Settings: Jurkat-IKZF2-HiBiT cells, 24 hours; read-out: HiBit assay degradation analysis Dmax
recorded_endpoint: Dmax

// batch mode: one Dmax value per listed entry
1. O=C1CCC(N2Cc3c(ccc4c3OCC43CCN(Cc4ccc5oc(=O)[nH]c5c4)CC3)C2=O)C(=O)N1 (stereo not shown)
2. O=C1CCC(N2Cc3c(ccc4c3OCC43CCN(C[C@H]4C[C@H](Oc5ccc(F)cc5)C4)CC3)C2=O)C(=O)N1 (stereo partly shown)
3. O=C1CC[C@H](N2Cc3c(ccc4c3OCC43CCN(Cc4cccc(-c5cnn(C[C@@H]6COCCO6)c5)c4)CC3)C2=O)C(=O)N1
4. O=C1CCC(N2Cc3c(ccc4c3OCC43CCN(Cc4cnn(Cc5ccccc5F)c4)CC3)C2=O)C(=O)N1 (stereo not shown)

Result string:
60 to 80%
40 to 60%
60 to 80%
60 to 80%
